molecular target: BgaD-D, smallest isozyme of the β-galactosidase from B. circulans ATCC 31382 (Biolacta) (Bacillus circulans ATCC 31382); test: KD (nM) to BgaD-D; assay not given; the values equal those of the bead assay with purified proteins in FIG. 3B [panel c]
attribute.measured: pKd
Just the number, please; pKd means minus log10 of the concentration in mol/L.

Use these answered entries as a reference point.
* Mb(BgaD_L02) (designed binder) VSSVPTKLEVVAATPTSLLISWDANGWNYVKYYRITYGETGGNSPVQEFTVPGSSSTATISGLKPGVDYTITVYAYEYYSESSSSPISINYRT | 8.00
* Mb(BgaD_L23) (designed binder) VSSVPTKLEVVAATPTSLLISWDAFDGYWYDYVSFYRITYGESGGNSPVQEFTVPSSSSTATISGLKPGVDYTITVYAYSHSQQQYLSPNSINYRT | 7.60
* Mb(BgaD_S09) (designed binder) VSSVPTKLEVVAATPTSLLISWDAPAVTVVYYVITYGETGGNSPVQEFTVPGSKSTATISGLKPGVDYTITVYAYSDQVEYYEYFYGSPISINYRT | 6.77

# pKd (binder: Mb(BgaD_S10) (designed binder) VSSVPTKLEVVAATPTSLLISWDAPAVTVVFYLITYGETGASSWPGYQEFTVPGSKSTATISGLKPGVDYTITVYAQYPWDTGSPISINYRT ) is 7.89
